Hey, just so you know, these numbers are from the supplement of paper PMC11246515.

# total protein half-life in vivo values compiled below
ASSAY DETAILS: total protein half-life in vivo (active degradation + dilution); higher = more stable protein
COND: wild type E. coli NCM3722; growth: N-lim chemostat; doubling time 6 h
MEASUREMENT TYPE: total protein half-life in vivo

SEQUENCE STRING	VALUE OBSERVED
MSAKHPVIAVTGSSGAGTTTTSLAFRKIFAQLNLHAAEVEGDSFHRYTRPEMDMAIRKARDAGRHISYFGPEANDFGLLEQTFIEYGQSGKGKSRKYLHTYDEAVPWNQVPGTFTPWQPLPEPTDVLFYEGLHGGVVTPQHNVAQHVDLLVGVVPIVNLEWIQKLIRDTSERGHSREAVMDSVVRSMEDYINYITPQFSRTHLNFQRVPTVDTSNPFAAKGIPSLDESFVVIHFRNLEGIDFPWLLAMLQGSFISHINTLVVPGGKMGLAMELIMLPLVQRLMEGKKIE [P0AEX5]	5.42 h
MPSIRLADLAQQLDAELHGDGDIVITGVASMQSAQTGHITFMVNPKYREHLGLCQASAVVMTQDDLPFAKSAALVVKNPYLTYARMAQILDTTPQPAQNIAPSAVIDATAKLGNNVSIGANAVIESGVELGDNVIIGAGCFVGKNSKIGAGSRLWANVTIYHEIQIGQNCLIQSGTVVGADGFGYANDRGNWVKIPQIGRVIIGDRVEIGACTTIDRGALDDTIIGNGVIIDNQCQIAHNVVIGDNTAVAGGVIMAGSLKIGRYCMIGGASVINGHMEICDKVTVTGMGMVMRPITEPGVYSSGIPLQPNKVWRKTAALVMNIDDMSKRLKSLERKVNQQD	5.06 h
MKVGFIGLGIMGKPMSKNLLKAGYSLVVADRNPEAIADVIAAGAETASTAKAIAEQCDVIITMLPNSPHVKEVALGENGIIEGAKPGTVLIDMSSIAPLASREISEALKAKGIDMLDAPVSGGEPKAIDGTLSVMVGGDKAIFDKYYDLMKAMAGSVVHTGEIGAGNVTKLANQVIVALNIAAMSEALTLATKAGVNPDLVYQAIRGGLAGSTVLDAKAPMVMDRNFKPGFRIDLHIKDLANALDTSHGVGAQLPLTAAVMEMMQALRADGLGTADHSALACYYEKLAKVEVTR [P0ABQ2]	3.13 h
MRFIIRTVMLIALVWIGLLLSGYGVLIGSKENAAGLGLQCTYLTARGTSTVQYLHTKSGFLGITDCPLLRKSNIVVDNG [Q2MB16]	5.45 h
METKNLTIGERIRYRRKNLKHTQRSLAKALKISHVSVSQWERGDSEPTGKNLFALSKVLQCSPTWILFGDEDKQPTPPVEKPVALSPKELELLELFNALPESEQDTQLAEMRARVKNFNKLFEELLKARQRTNKR	4.97 h
MIDYEVLRFIWWLLVGVLLIGFAVTDGFDMGVGMLTRFLGRNDTERRIMINSIAPHWDGNQVWLITAGGALFAAWPMVYAAAFSGFYVAMILVLASLFFRPVGFDYRSKIEETRWRNMWDWGIFIGSFVPPLVIGVAFGNLLQGVPFNVDEYLRLYYTGNFFQLLNPFGLLAGVVSVGMIITQGATYLQMRTVGELHLRTRATAQVAALVTLVCFALAGVWVMYGIDGYVVKSTMDHYAASNPLNKEVVREAGAWLVNFNNTPILWAIPALGVVLPLLTILTARMDKAAWAFVFSSLTLACIILTAGIAMFPFVMPSSTMMNASLTMWDATSSQLTLNVMTWVAVVLVPIILLYTAWCYWKMFGRITKEDIERNTHSLY [P0ABK2]	6.61 h
